- Tested on: BT-549
- ASSAY: NCI tumour cell line growth inhibition, 48 h
Calls of active or inactive are those of the source. Rule as the data show it: active = GI50 up to about 1.1 µM and inactive = higher. Where a SMILES comes first, the peptide text is derived from it. The star is where a group is joined. Fmoc = O=C(OCC1c2ccccc2-c2ccccc21)*; Boc = CC(C)(C)OC(=O)*
Pick one: Yes (active), No (inactive)

See these solved cases before continuing.
O=C(NNC(c1ccccc1)C(F)(F)F)c1ccncc1 (configuration not stated) : No
O=C(O)CCC1NC(/C(=C/c2ccccc2O)NC(=O)c2ccccc2)OC1=O (configuration not stated) : No
CC(=O)Nc1ccc(Nc2cc(O)nc(O)n2)cc1 : No
COC1C(O)CC(OC2C(C)OC(Oc3cc(O)c4c(O)c5c(cc4c3)C[C@@H]([C@H](OC)C(=O)[C@@H](O)[C@@H](C)O)[C@H](OC3CC(OC4CC(OC6CC(C)(O)C(O)C(C)O6)C(O)C(C)O4)C(O)C(C)O3)C5=O)CC2OC(C)=O)OC1C (some centres not stated) : No

Exercise: Query: recorded result category for COc1cccc2c1C(=O)c1c(O)c3c(c(O)c1C2=O)C[C@@](O)(C(=O)CO)C[C@@H]3OC1CC(N)C(OC)C(C)O1 (some centres not stated) in this test
Solution: Yes

Exercise: Another compound to check: CC(C)(C)OC(=O)NCCCCC(NC(=O)OCC1c2ccccc2-c2ccccc21)C(=O)N1CCCC1C(=O)NCC(N)=O (stereo not drawn) (Fmoc-Lys(Boc)-Pro-Gly-NH2; configuration not given here)
Solution: No

Exercise: Another compound to check: COc1ccc(/C=C/c2cc(=O)cc(/C=C/c3ccc(OC)c(O)c3)o2)cc1O
Solution: No

###

- Test system: SK-MEL-5
- ASSAY: NCI tumour cell line growth inhibition, 48 h
Calls of active or inactive are those of the source. Cut-off read from the data, not from the text of the source: active = GI50 up to about 1.1 µM and inactive = higher.
MEASURED_PARAMETER: GI50

C#CC1(O)CCC2C3CCc4cc(Oc5nc(F)nc(-c6c7ccccc7c7sc8ccccc8n67)n5)ccc4C3CC[C@@]21C (stereo not given in full) : > 100 µM (inactive)

// next entry
Exercise: Query: GI50; subject: NC(=O)C1CCN(Cc2c(Cl)c(Cl)c(CN3CCC(C(N)=O)CC3)c(Cl)c2Cl)CC1
Solution: > 100 µM (inactive)

###

- System: SN12C
- ASSAY: NCI tumour cell line growth inhibition, 48 h
Calls of active or inactive are those of the source. Rule as the data show it: active = GI50 up to about 1.1 µM and inactive = higher.
MEASURED_PARAMETER: GI50

Exercise: What is its GI50 for SN12C? Entry: Cc1[nH]c(=O)[nH]c(=O)c1/C=C/C(=O)NC(CO)C[S+]([O-])C[S+](C)[O-] (stereo not given)
Solution: 14.2 µM (inactive)

Exercise: Another molecule to check: CCc1cccc(C)c1NC(=O)C(=O)Cc1nc2ccccc2s1
Solution: > 100 µM (inactive)

Exercise: Another molecule to check: CCc1cccc(C(C)C)c1NC(=O)CCl
Solution: > 100 µM (inactive)

Exercise: Another molecule to check: CCCCCCCCCC(=O)NC(CCC(=O)N(CCNC(=O)c1nc(-c2ccccc2)oc1-c1ccccc1)Cc1ccccc1)C(=O)O (stereo not given)
Solution: 18.7 µM (inactive)

Exercise: Another molecule to check: C[S+]([O-])c1cc(=O)c2ccccc2s1 (stereo not given)
Solution: 5.79 µM (inactive)

Exercise: Another molecule to check: N#CC(C(=O)C(=O)Nc1c(Cl)cccc1Cl)c1ccccc1 (stereo not given)
Solution: > 10 µM (inactive)

Exercise: Another molecule to check: CC(=O)n1nc(-c2ccc3ccccc3c2)nc1C
Solution: > 100 µM (inactive)

Exercise: Another molecule to check: N#Cc1nc(-c2ccc(-c3nc(C#N)c(N)o3)cc2)oc1N
Solution: > 10 µM (inactive)

Exercise: Another molecule to check: O=C(Nc1ccn(C2CCC(CO)O2)c(=O)n1)c1ccccc1 (stereo not given)
Solution: > 100 µM (inactive)

Exercise: Another molecule to check: N[C@H]1C2C3CC4C5CC(C42)C1(c1ccccc1)C53 (stereo not given in full)
Solution: > 100 µM (inactive)

Exercise: Another molecule to check: CS(=O)(=O)OC1CCN(C2(c3cccc(O)c3)CCCCC2)CC1
Solution: 32.9 µM (inactive)

Exercise: Another molecule to check: CN1CC[C@]23c4c5ccc(O)c4OC2c2[nH]ncc2C[C@H]3[C@H]1C5 (stereo not given in full)
Solution: > 100 µM (inactive)

###

- Test system: UACC-62
- ASSAY: NCI tumour cell line growth inhibition, 48 h
Activity calls are given as the source filed them. Rule as the data show it: active = GI50 up to about 1.1 µM and inactive = higher.
Pick one: 1 = active, -1 = inactive

See these solved cases before continuing.
COC(=O)C(Cc1c[nH]c2ccccc12)NC(=O)c1ccc(-c2ccc(Cl)cc2Cl)o1 (stereo not given) : -1
O=C1Nc2nccnc2C(=O)N2CCC[C@@H]12 : -1
CC(=O)Oc1c2ccsc2c(OC(C)=O)c2ccsc12 : -1
CCC1(O)C(=O)OCc2c1cc1n(c2=O)Cc2cc3ccccc3nc2-1 (stereo not given) : 1

Exercise: Query: recorded result category for CO/N=C1/c2sccc2[C@H](NC(=O)CNC(=O)OC(C)(C)C)[C@@H]1O in this test
Solution: -1

###

- Tested on: HOP-92
- ASSAY: NCI tumour cell line growth inhibition, 48 h
Activity calls are given as the source filed them. No stated cut-off is given here; in the data, active = GI50 up to about 1.1 µM and inactive = higher.
Pick one: active, inactive

See these solved cases before continuing.
CC(C)(C)OC(=O)CN1CCNCCNCC1 : inactive
N#Cc1nc(-c2ccc(-c3nc(C#N)c(N)o3)cc2)oc1N : inactive
CC1=NN(C(=O)c2ccc(Cl)cc2)C(=O)C1/N=N/c1ccc(S(=O)(=O)Nc2ncccn2)cc1 (configuration not stated) : active
COC(=O)C1(C(=O)OC)Cc2ccc(OC)cc2C2=C1C(=O)c1ccccc1C2=O : inactive
COc1ccc(C(=O)N/N=C/c2c(C)n(C)n(-c3ccccc3)c2=O)cc1 : inactive
COc1ccc(/C=C/c2cc(=O)cc(/C=C/c3ccc(OC)c(O)c3)o2)cc1O : inactive

Exercise: Query: recorded result category for Clc1ccc(C2Nc3ccccc3C3=NCCN32)cc1 (configuration not stated) in this test
Solution: inactive

###

Here the recorded GI50 is given for each entry.
- Tested on: A549
- ASSAY: NCI tumour cell line growth inhibition, 48 h
The source made the active and inactive calls. Rule as the data show it: active = GI50 up to about 1.1 µM and inactive = higher.

COC(=O)C(C(=O)C(=O)Nc1ccccc1C(C)=O)c1nc2ccc(Cl)cc2nc1O (centres undefined) : > 100 µM (inactive)
CC(CO)CCC(O)C(C)(O)C1CCC2(O)C3=CC(=O)C4CC(O)C(O)CC4(C)C3CCC12C (centres undefined) : > 100 µM (inactive)
CCCCI(O)OS(=O)(=O)c1ccc(C)cc1 : 66.2 µM (inactive)

Exercise: Query: GI50; subject: CN(C)CCNc1ccc2nnn3c4ccc(Cl)cc4c(=O)c1c23
Solution: 2.72 µM (inactive)

###

- Tested on: SF-539
- ASSAY: NCI tumour cell line growth inhibition, 48 h
Active and inactive are the calls of the source. Cut-off read from the data, not from the text of the source: active = GI50 up to about 1.1 µM and inactive = higher.
Pick one: active, inactive

See these solved cases before continuing.
CC(C)CCCC(C)[C@H]1CC[C@H]2[C@@H]3CC[C@H]4C[C@@H](CCC=C(c5cc(Cl)c(O)c(C(=O)OC(C)(C)C)c5)c5cc(Cl)c(O)c(C(=O)OC(C)(C)C)c5)CC[C@]4(C)[C@H]3CC[C@]12C (stereo not given in full) : inactive
CN1C(=O)C(C)(C)NS1(=O)=O : inactive
OC1(C(Sc2ccccc2)Sc2ccccc2)CCCCCC1 : inactive
Nc1c(S(=O)(=O)O)cc(Nc2cccc(S(=O)(=O)/C=C/S(=O)(=O)O)c2)c2c1C(=O)c1ccccc1C2=O : inactive

Exercise: Query: recorded result category for O=C1c2cccc3cccc(c23)C(=O)N1CCCNCCCNCCCCNCCCNCCCN1C(=O)c2cccc3cccc(c23)C1=O in this test
Solution: inactive

Exercise: Another compound to check: COc1ccc2[nH]c(Cl)c(/C=C3/C(=O)Nc4cc(C)c(OC)cc43)c2c1
Solution: active

###

- Test system: SNB-78
- ASSAY: NCI tumour cell line growth inhibition, 48 h
Active and inactive are the calls of the source. Cut-off read from the data, not from the text of the source: active = GI50 up to about 1.1 µM and inactive = higher.
Pick one: T = active, F = inactive

See these solved cases before continuing.
O=C(Nc1ccccc1[N+](=O)[O-])C(=O)C(C(=O)c1ccccc1-c1ccccc1)C1OC(=O)c2ccccc21 (centres undefined) : F
CC12CC3(C)CC(C)(C1)CC(N=[N+]=[N-])(C2)C3 : F
NC(=O)c1c([N+](=O)[O-])cc(C(F)(F)F)cc1[N+](=O)[O-] : F
CC(CCC[C@H](C)CO)[C@H]1[C@@H](O)C(O)C2[C@@H]3C[C@@H](O)C4(O)C[C@@H](O)CC[C@]4(C)C3CC[C@@]21C (some centres undefined) : F
O=C1C(c2ccccc2)=C(c2ccccc2)C(c2ccc(Sc3ccc(C4=C(c5ccccc5)C(=O)C(c5ccccc5)=C4c4ccccc4)cc3)cc2)=C1c1ccccc1 : F

Exercise: Query: recorded result category for O=C1c2cccc3cc([N+](=O)[O-])cc(c23)C(=O)N1CCNCCNCCNCCN1C(=O)c2cccc3cc([N+](=O)[O-])cc(c23)C1=O in this test
Solution: T

Exercise: Another compound to check: CN1C(=O)C(C)(C)NS1(=O)=O
Solution: F

Exercise: Another compound to check: C[C@H]1C=C2C(=O)O[C@H]3CC[C@@H](C1)[C@@]23O
Solution: F

Exercise: Another compound to check: CCOC(=O)C1=C(Nc2ccc(Cl)c(Cl)c2)OC/C1=N\NS(=O)(=O)c1ccc(C)cc1
Solution: F

Hey, just so you know, these numbers are from ChEMBL document CHEMBL1201862.
